# Test system: DIGSA (Digitaria Sanguinalis (L.) SCOP, large crabgrass)
# Experiment Description: Weed control test, foliage treatment (Test Example 1, Table 7)
# Format: in vivo
# Stated Conditions: Digitaria sanguinalis, foliar, 0.2 kg/ha, read-out: Plant damage (herbicidal activity), visually evaluated, DIGSA
Result Type: pest or weed control at 200 g/ha (%)
Field format: number, assumed %, no unit text.

Consider the following illustrative entries.
compound="C[C@@H](Oc1ccc(Oc2ccc(C#N)cc2F)cc1)C(=O)Nc1nc2ccccc2s1 [Example 19]" test_target="DIGSA (Digitaria Sanguinalis (L.) SCOP, large crabgrass)" endpoint_result=30
compound="C[C@@H](Oc1ccc(C(F)=C(c2ccccc2)C(F)(F)F)cc1)C(=O)Nc1ccccc1F [Example 42]" test_target="DIGSA (Digitaria Sanguinalis (L.) SCOP, large crabgrass)" endpoint_result=20
compound="C[C@@H](Oc1ccc(OC(F)=Cc2ccc(Cl)cc2)cc1)C(=O)Nc1nc2cc(Cl)ccc2o1 [Example 56]" test_target="DIGSA (Digitaria Sanguinalis (L.) SCOP, large crabgrass)" endpoint_result=90
compound="C[C@@H](Oc1ccc(Oc2ccc(C#N)cc2F)cc1)C(=O)Nc1cnccn1 [Example 35]" test_target="DIGSA (Digitaria Sanguinalis (L.) SCOP, large crabgrass)" endpoint_result=60
compound="Cc1cc(NC(=O)[C@@H](C)Oc2ccc(Oc3ccc(C#N)cc3F)cc2)n(C)n1 [Example 29]" test_target="DIGSA (Digitaria Sanguinalis (L.) SCOP, large crabgrass)" endpoint_result=90

# ---- query compound ----
Query pest or weed control at 200 g/ha for C[C@@H](Oc1ccc(Oc2ccc(C#N)cc2F)cc1)C(=O)Nc1nc2ccc(F)cc2s1 [Example 23] 20

Reference source: patent US8293774B2
